- systemTested: Rap guanine nucleotide exchange factor 4 (Homo sapiens) (UniProt Q8WZA2)
- Sequence (Q8WZA2 whole entry, looked up): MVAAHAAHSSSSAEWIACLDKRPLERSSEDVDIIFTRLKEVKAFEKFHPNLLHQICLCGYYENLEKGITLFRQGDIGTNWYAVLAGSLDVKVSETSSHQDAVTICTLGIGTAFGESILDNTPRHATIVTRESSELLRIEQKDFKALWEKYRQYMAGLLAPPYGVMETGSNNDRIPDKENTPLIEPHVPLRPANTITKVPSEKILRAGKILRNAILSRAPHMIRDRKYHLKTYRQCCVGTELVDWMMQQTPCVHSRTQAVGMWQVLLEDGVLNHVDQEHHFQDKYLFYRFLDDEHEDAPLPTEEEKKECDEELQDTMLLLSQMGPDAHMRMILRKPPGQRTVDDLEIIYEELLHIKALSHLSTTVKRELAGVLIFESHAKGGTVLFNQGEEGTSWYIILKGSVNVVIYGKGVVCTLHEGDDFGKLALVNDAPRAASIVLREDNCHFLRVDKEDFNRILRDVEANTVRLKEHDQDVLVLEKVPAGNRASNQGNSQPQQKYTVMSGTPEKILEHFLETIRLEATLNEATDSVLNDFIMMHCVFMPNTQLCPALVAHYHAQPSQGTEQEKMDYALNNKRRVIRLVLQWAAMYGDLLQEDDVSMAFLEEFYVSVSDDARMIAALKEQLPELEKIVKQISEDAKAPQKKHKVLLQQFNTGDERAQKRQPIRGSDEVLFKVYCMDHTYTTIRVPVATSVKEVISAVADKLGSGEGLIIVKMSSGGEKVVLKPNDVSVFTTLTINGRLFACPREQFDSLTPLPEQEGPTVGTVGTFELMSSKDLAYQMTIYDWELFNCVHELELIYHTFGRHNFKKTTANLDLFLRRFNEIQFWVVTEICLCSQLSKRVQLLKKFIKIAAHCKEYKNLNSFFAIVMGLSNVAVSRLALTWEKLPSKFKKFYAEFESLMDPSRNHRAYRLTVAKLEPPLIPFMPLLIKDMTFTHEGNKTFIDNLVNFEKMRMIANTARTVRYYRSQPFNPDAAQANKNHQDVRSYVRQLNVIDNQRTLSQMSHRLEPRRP
- protocol: Confirmatory qHTS for antagonist of cAMP-regulated guanine nucleotide exchange factor 4 (EPAC2) (AID 1645885); further: nearly all actives have a fitted effect of over 25% in size; further: potency means the concentration at half of the fitted maximal effect
- conditionLabel: EPAC2 Rap1B-BODIPY-GDP exchange fluorescence, biochemical; series mostly up to 114 µM
Records with an inconclusive call do not appear. Calls of active or inactive are those of the source. The call rests on the fitted dose curve; in most records, active means well fitted inhibition curve with a large enough effect; inconclusive means small, poorly fitted or top-dose-only effect; inactive means no such curve, though single readings can be large or run the other way.
Measured Potency values are reported for all entries that follow.

Below, each entry is followed by its recorded Potency result.
compound=O=C(c1cccc(F)c1)N1CCC2(CCN(Cc3cc(C(F)(F)F)cc(C(F)(F)F)c3)CC2)CC1 recordedmetric=Potency reportedvalue="39.3 µM (active)"
compound=COc1ccccc1CNc1nc(-c2c(C)noc2C)nc2ccccc12 recordedmetric=Potency reportedvalue="39.3 µM (active)"
compound=O=C(Nc1ccccc1)N1CCCC2(CCN(C(=O)c3cc(C(F)(F)F)cc(C(F)(F)F)c3)CC2)C1 recordedmetric=Potency reportedvalue="44.1 µM (active)"

Query string: Look up Potency for this compound: CCC(=O)NC(c1ccco1)c1cc(Cl)c2ccccc2c1O (stereo not given)
Result string: 53.6 µM (active)

Query string: Looking for the measured Potency of O=c1c(-c2cc(F)cc(F)c2)nc2cnc(N3CCNCC3)nc2n1Cc1cccs1 , can you help?
Result string: 55.5 µM (active)

----------
- systemTested: Glutathione peroxidase 1 (Homo sapiens)
- protocol: Primary qHTS Assay for Inhibitors of Recombinant Selenoprotein Glutathione Peroxidase 1 (GPX1) (AID 1845191); further: nearly all actives have a fitted effect of over 65% in size
- conditionLabel: recombinant GPX1, GR-coupled NADPH fluorescence, 15 min; series mostly up to 48.8 µM
Results filed as inconclusive are left out. Activity calls are given as the source filed them. Calls come from the whole dose curve; as a rule, active = well fitted inhibition curve with a large enough effect; inconclusive = small, poorly fitted or top-dose-only effect; inactive = flat fitted curve, though single readings scatter.
recordedMetric: outcome

Answered cases to consult:
molecularstring=CCn1c(=O)c(-c2ccc(-c3cncc(C)n3)cc2Cl)cc2cnc(NCCC3CCN(C)CC3)nc21 reportedvalue="inactive [at 4.49 µM]"
molecularstring=CN1CCN(C(=O)[C@H]2[C@@H](C(=O)O)[C@H]3CC[C@@H]2O3)CC1 reportedvalue="inactive [at 9.52 µM]"
molecularstring=Cn1cc(-c2nc(N[C@@H]3CCCC[C@@H]3N)c(F)c3c2C(=O)NC3)cn1 reportedvalue="inactive [at 4.49 µM]"
molecularstring=CNCCn1c(=O)c2cc(OC)c(OC)cc2c2cnc3cc4c(cc3c21)OCO4 reportedvalue="inactive [at 9.52 µM]"
molecularstring=CN(C)CCNC(=O)COc1c2cccc1Cc1cccc(c1OCC(=O)NCCN(C)C)Cc1cccc(c1OCC(=O)NCCN(C)C)Cc1cccc(c1OCC(=O)NCCN(C)C)C2 reportedvalue="inactive [at 9.52 µM]"

Query string: State the recorded outcome for this entry: COc1ccc2[nH]c3c(c2c1)CCN[C@]31CS[C@@H]2c3c(OC(C)=O)c(C)c4c(c3[C@H](COC1=O)N1[C@@H]2[C@H]2c3c(cc(C)c(OC)c3O)C[C@@H]([C@@H]1O)N2C)OCO4
Result string: inactive [at 9.52 µM]

----------
- systemTested: Rap guanine nucleotide exchange factor 4 (Homo sapiens)
- protocol: Confirmatory qHTS for antagonist of cAMP-regulated guanine nucleotide exchange factor 4 (EPAC2) (AID 1645885); further: nearly all actives have a fitted effect of over 25% in size; on activity change, negative = inhibition: on the % scale 0 is the no-effect control and ±100 the full control effect
- conditionLabel: EPAC2 Rap1B-BODIPY-GDP exchange fluorescence, biochemical; series mostly up to 114 µM
Records with an inconclusive call do not appear. Active and inactive are the calls of the source. Calls come from the whole dose curve; as a rule, active = well fitted inhibition curve with a large enough effect; inconclusive = small, poorly fitted or top-dose-only effect; inactive = no such curve, though single readings can be large or run the other way.
recordedMetric: activity change, negative = inhibition

Would you please look over these solved cases?
molecule="Nc1ncnc2c1C(c1ccccc1)c1c(ccc3ccccc13)O2 (stereo not given)" systemtested="Rap guanine nucleotide exchange factor 4 (Homo sapiens)" reportedvalue=inactive
molecule=CC(/C=C1\SC(=S)N(CC(=O)O)C1=O)=C\c1ccccc1 systemtested="Rap guanine nucleotide exchange factor 4 (Homo sapiens)" reportedvalue=inactive
molecule=O=C(CCc1ccccc1)Nc1ccc(S(=O)(=O)Nc2nccs2)cc1 systemtested="Rap guanine nucleotide exchange factor 4 (Homo sapiens)" reportedvalue="1.51% [at 12.7 µM] (inactive)"
molecule="CCC(=O)NC(c1cccs1)c1cc(Cl)c2ccccc2c1O (stereo not given)" systemtested="Rap guanine nucleotide exchange factor 4 (Homo sapiens)" reportedvalue="-13.9% [at 12.7 µM] (inactive)"

// next entry
Query string: Could you tell me which activity change, negative = inhibition is on file for CN(C)c1ncc2nc(-c3cccs3)c(=O)n(CCC#N)c2n1 ?
Result string: inactive

Data provenance: PubChem BioAssay (NCATS)
